System: NQO1 activation in BEAS-2B cells
Assay: BEAS-2B cellular MTT assay of NQO1 activation, 0.3% HSA
Type: cell-based
Conditions: Homo sapiens, BEAS+, read-out: BEAS+ EC50
MEASURE: log10(EC50) (log10 of the value in nM)

In [3]: df
Out[3]:
                                    molecule                         tested_on      measure  result_value
 0  Cc1c2ccc3c1nnn3CCCCCCOc1ccc(cn1)C(=O)N1CCc3ccc(cc3C1)C2CC(=O)O (centres unmarked) [Compound 378]  NQO1 activation in BEAS-2B cells  log10(EC50)          2.33
 1  Cc1c2ccc3c1nnn3CCCCCc1ccc(c(F)c1)C(=O)N1CCc3ccc(cc3C1)C2CC(=O)O (centres unmarked) [Compound 266]  NQO1 activation in BEAS-2B cells  log10(EC50)          0.41
 2  C[C@@H](C(=O)O)[C@H]1c2ccc3c(c2)CN(CC3)C(=O)c2ccc(cc2)OCCCCCCn2nnc3cc1ccc32 [Compound 324]  NQO1 activation in BEAS-2B cells  log10(EC50)          1.26
 3  C[C@H](C(=O)O)[C@H]1c2ccc3c(c2)CN(CC3)C(=O)c2ccc(cc2)OCCCCCn2nnc3cc1ccc32 [Compound 234]  NQO1 activation in BEAS-2B cells  log10(EC50)          3.59
 4  Cc1cc2ccc1OCCCCCn1nnc3c(C)c(ccc31)C(CC(=O)O)c1ccc3c(c1)CN(CC3)C2=O (centres unmarked) [Compound 261]  NQO1 activation in BEAS-2B cells  log10(EC50)          2.30
 5  Cc1c2ccc3c1nnn3CCCCC(F)(F)Oc1ccc(cc1)C(=O)N1CCc3ccc(cc3C1)C2CC(=O)O (centres unmarked) [Compound 304]  NQO1 activation in BEAS-2B cells  log10(EC50)          1.40
 6  Cc1c2ccc3c1nnn3CCCCCOc1ccc(c(F)c1F)C(=O)N1CCc3ccc(cc3C1)C2CC(=O)O (centres unmarked) [Compound 306]  NQO1 activation in BEAS-2B cells  log10(EC50)          2.13
 7  O=C(O)CC1c2ccc(cc2)OCCCCCOc2ccc(cc2)C(=O)N2CCc3ccc1cc3C2 (centres unmarked) [Compound 399]  NQO1 activation in BEAS-2B cells  log10(EC50)          3.30
 8  Cc1c2ccc3c1nnn3CCCCCCn1ccc3ccc(cc31)C(=O)N1CCc3ccc(cc3C1)C2CC(=O)O (centres unmarked) [Compound 394]  NQO1 activation in BEAS-2B cells  log10(EC50)          3.43
 9  Cc1c2ccc3c1nnn3CCOCCCOc1ccc(c(F)c1)C(=O)N1CCc3ccc(cc3C1)C2CC(=O)O (centres unmarked) [Compound 382]  NQO1 activation in BEAS-2B cells  log10(EC50)          2.23
10  O=C(O)CC1c2ccc3c(c2)CN(CC3)C(=O)c2ccc(c(F)c2F)OCCCCCCn2nnc3cc1ccc32 (centres unmarked) [Compound 320]  NQO1 activation in BEAS-2B cells  log10(EC50)          2.66

---

Test system: NQO1 activation in BEAS-2B cells
Experiment: BEAS-2B cellular MTT assay of NQO1 activation, 0.3% HSA
Type: cell-based
Conditions: Homo sapiens, BEAS+, read-out: BEAS+ EC50
Quick reference for EC50 among some molecules
MEASURE: EC50

In [3]: df
Out[3]:
                                   molecule  measure  result_value
0  C[C@@H](C(=O)O)[C@@H]1c2ccc3c(c2)CN(CC3)C(=O)c2c(F)cc(cc2F)OCCCCCCn2nnc3cc1ccc32     EC50       > 10 µM
1  Cc1cc2ccc1C(=O)N1CCc3ccc(cc3C1)C(CC(=O)O)c1cnc(nc1C)OCCCCO2 (stereo not drawn)     EC50       > 10 µM
2  COC(=O)CC1c2ccc3c(c2)CN(CC3)C(=O)c2ccc(cc2C)OCCCCCn2nnc3cc1ccc32 (stereo not drawn)     EC50       > 10 µM

---

Target: HIS-Keap1 full length / Biotin-Nrf2 (16-mer) (Homo sapiens, UniProt Q14145)
Sequence (Q14145 whole entry): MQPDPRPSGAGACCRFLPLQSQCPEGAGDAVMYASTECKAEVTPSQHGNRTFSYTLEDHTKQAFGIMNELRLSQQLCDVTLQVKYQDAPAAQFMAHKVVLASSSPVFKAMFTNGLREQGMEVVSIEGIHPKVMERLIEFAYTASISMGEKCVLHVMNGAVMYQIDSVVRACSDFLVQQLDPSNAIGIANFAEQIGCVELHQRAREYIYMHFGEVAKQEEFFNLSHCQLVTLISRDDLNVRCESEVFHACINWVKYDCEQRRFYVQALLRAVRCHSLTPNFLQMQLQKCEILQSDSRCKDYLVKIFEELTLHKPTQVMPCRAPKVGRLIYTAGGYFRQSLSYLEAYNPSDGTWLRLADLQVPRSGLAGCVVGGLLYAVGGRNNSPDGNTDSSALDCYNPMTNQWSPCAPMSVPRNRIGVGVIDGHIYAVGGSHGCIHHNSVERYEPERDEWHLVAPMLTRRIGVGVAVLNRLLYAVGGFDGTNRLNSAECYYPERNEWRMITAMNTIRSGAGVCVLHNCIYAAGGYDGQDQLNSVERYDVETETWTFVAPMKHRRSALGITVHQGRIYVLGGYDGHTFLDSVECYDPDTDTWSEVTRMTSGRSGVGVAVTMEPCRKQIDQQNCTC
Experiment: biochemical
Labelling field: enter y if recorded IC50 is less than 2 nM. Enter n if it equals or exceeds that cut-off.

In [3]: df
Out[3]:
                                   compound  class_assignment
0  O=C(O)CC1c2cnc(nc2)OCCCCc2ccc(cc2Cl)C(=O)N2CCc3ccc1cc3C2 (stereo not drawn)                 n
1  O=C(O)CC1c2cnc(nc2)OCCCCCc2cc(F)c(c(F)c2)C(=O)N2CCc3ccc1cc3C2 (stereo not drawn)                 n
2  Cc1c2ccc(c1C)C(=O)N1CCc3ccc(cc3C1)C(CC(=O)O)c1ccc3c(nnn3CCCCCCO2)c1C (stereo not drawn)                 y
3  O=C(O)CC1c2ccc3c(c2)CN(CC3)C(=O)c2c(F)cc(cc2F)CCCCCn2nnc3cc1ccc32 (stereo not drawn)                 y
4  Cc1c2cnc3c1nnn3CCCCCCOc1cc(F)c(c(F)c1)C(=O)N1CCc3ccc(cc3C1)[C@H]2CC(=O)O                 y
5  Cc1c2cnc3c1nnn3CCCCCc1cc(F)c(c(F)c1)C(=O)N1CCc3ccc(cc3C1)C2CC(=O)O (stereo not drawn)                 n

---

Molecular target: HIS-Keap1 full length / Biotin-Nrf2 (16-mer) (Homo sapiens)
Experiment: biochemical
Quick reference for IC50 among some molecules
MEASURE: IC50

In [3]: df
Out[3]:
                                   molecule                                 tested_on  result_value
0  O=C(O)CC1c2ccc3c(c2)CN(CC3)C(=O)c2ccc(cc2Cl)OCCCCCCn2nnc3cc1ccc32 (stereo not shown) [Compound 305]  HIS-Keap1 full length / Biotin-Nrf2 (16-mer) (Homo sapiens)   < 0.0001 µM
1  Cn1cc2c3ccc(cc31)CCCCOc1ccc(cn1)C(CC(=O)O)c1ccc3c(c1)CN(CC3)C2=O (stereo not shown) [Compound 121]  HIS-Keap1 full length / Biotin-Nrf2 (16-mer) (Homo sapiens)     > 0.99 µM
2  O=C(O)CC1c2ccc(nc2)OCCCCOc2cnc(cn2)C(=O)N2CCc3ccc1cc3C2 (stereo not shown) [Compound 185]  HIS-Keap1 full length / Biotin-Nrf2 (16-mer) (Homo sapiens)        > 1 µM
3  O=C(O)CC1c2ccc3c(c2)CN(CC3)C(=O)c2cccc(c2)OCCCCn2nnc3ccc1cc32 (stereo not shown) [Compound 435]  HIS-Keap1 full length / Biotin-Nrf2 (16-mer) (Homo sapiens)       > 30 µM

---

Tested on: NQO1 activation in BEAS-2B cells
Assay: BEAS-2B cellular MTT assay of NQO1 activation, 0% HSA
Format: cell-based
Conditions: Homo sapiens, serum free, read-out: BEAS EC50 (nM) serum free
MEASURE: EC50 (nM)

                                    compound                         tested_on  measure  result_operator  result_value
 0  Cc1nc2ncc1C(CC(=O)O)c1ccc3c(c1)CN(CC3)C(=O)c1ccc(c(Cl)c1)OCCCCO2 (stereo not drawn)  NQO1 activation in BEAS-2B cells     EC50                >         10000
 1  Cc1cc2ccc1C(=O)N1CCc3ccc(cc3C1)C(CC(=O)O)c1cnc(cc1C)OCCCCC2 (stereo not drawn)  NQO1 activation in BEAS-2B cells     EC50                =           2.6
 2  Cc1c2ccc3c1nnn3CCCCCCOc1ccc(cn1)C(=O)N1CCc3ccc(cc3C1)C2CC(=O)O (stereo not drawn)  NQO1 activation in BEAS-2B cells     EC50                =           133
 3  Cc1cc2ccc1C(=O)N1CCc3ccc(cc3C1)[C@@H](CC(=O)O)c1ccc3c(c1)nnn3CCCCCCO2  NQO1 activation in BEAS-2B cells     EC50                =          52.9
 4  Cc1c2ccc3c1nnn3CCCCCc1ccc3c(c1)nc(n3C)C(=O)N1CCc3ccc(cc3C1)C2CC(=O)O (stereo not drawn)  NQO1 activation in BEAS-2B cells     EC50                =           318
 5  O=C(O)CC1c2ccc(nc2)OCCCCCc2cc(F)c(c(F)c2)C(=O)N2CCc3ccc1cc3C2 (stereo not drawn)  NQO1 activation in BEAS-2B cells     EC50                =           9.3
 6  Cc1cc2ncc1C(CC(=O)O)c1ccc3c(c1)CN(CC3)C(=O)c1ccc(cc1)OCCCCO2 (stereo not drawn)  NQO1 activation in BEAS-2B cells     EC50                =          84.4
 7  O=C(O)CC1c2ccc(cc2)OCCCCCOc2ccc(cc2)C(=O)N2CCc3ccc1cc3C2 (stereo not drawn)  NQO1 activation in BEAS-2B cells     EC50                =           479
 8  C[C@@H](C(=O)O)[C@@H]1c2ccc3c(c2)CN(CC3)C(=O)c2c(F)cc(cc2F)OCCCCCCn2nnc3cc1ccc32  NQO1 activation in BEAS-2B cells     EC50                >         10000
 9  Cc1cc2cc(C)c1C(=O)N1CCc3ccc(cc3C1)C(CC(=O)O)c1ccc3c(c1)nnn3CCCCCCO2 (stereo not drawn)  NQO1 activation in BEAS-2B cells     EC50                =           141
10  Cc1c2cnc3c1nnn3CCCCCc1cc(F)c(c(F)c1)C(=O)N1CCc3ccc(cc3C1)C2CC(=O)O (stereo not drawn)  NQO1 activation in BEAS-2B cells     EC50                =           1.3
11  C[C@@H](C(=O)O)[C@H]1c2ccc3c(c2)CN(CC3)C(=O)c2ccc(cc2)OCCCCCn2nnc3cc1ccc32  NQO1 activation in BEAS-2B cells     EC50                =           7.2
12  Cc1c2ccc3c1nnn3CCCCCc1ccc(cc1)C(=O)N1CCc3ccc(cc3C1)[C@@H]2[C@H](C)C(=O)O  NQO1 activation in BEAS-2B cells     EC50                =           9.4
13  O=C(O)CC1c2ccc(cc2)OCCCCCc2ccc(cc2)C(=O)N2CCc3ccc1cc3C2 (stereo not drawn)  NQO1 activation in BEAS-2B cells     EC50                =          80.5
14  O=C(O)CC1c2cnc(nc2)OCCCCCc2ccc(cc2)C(=O)N2CCc3ccc1cc3C2 (stereo not drawn)  NQO1 activation in BEAS-2B cells     EC50                =           459
